Test system: MCF-7 breast epithelial cancer cell line
method-summary: Proliferation of log-phase cells, MCF-7
Assay type: cell-based
recorded-conditions: 48 h incubation, 10% FBS-supplemented medium, read-out: IC50 values (drug concentration required to reduce cell growth by 50%)
Experimental: All the cell lines were grown from frozen stocks originally obtained from ATCC. T47D, MDA-MB-468 and MCF-7 (breast cancer cell lines) were grown in DMEM. […] The effect of the ET-16-phosphono-TDBs on cell proliferation was conducted as previously described (Ashagbley, A., Samadder, P., Bittman, R., Erukulla, R. K., Byun, H-S., Arthur, G. (1996) Anticancer Res. 16, 1813-1818; and Lu, X., and Arthur, G. (1992) Cancer Res. 52, 2806-2812). […] The cell numbers were monitored daily. […]
pIC50: −log10 of the molar value.

# compound, pIC50
measured = [
    ("CCCCCCCCCCCCCCCCOC[C@H](C=CP(=O)([O-])OCC[N+](C)(C)C)OC [(S)-ET-16-phosphono-TDB]", 5.72),
    ("CCCCCCCCCCCCCCCCOC[C@@H](C=CP(=O)([O-])OCC[N+](C)(C)C)OC [(R)-ET-16-phosphono-TDB]", 5.39),
]
